# Species on record: Rattus norvegicus
# procedure summary: Open TG-GATES - Regimen: Single
# Format: toxicity, organism-based, Sprague-Dawley
# Set-up: regimen Single, gender Male, age 6 weeks
# measurement conditions: in vivo, po, 0 mg/kg, 3 h, tissue Blood, route gavage, dose level Control
# key: entry, value: MCV

The examples below pair each entry with its known result.
[[record]]
compound = "COc1cc2c(c(OC)c1OC)-c1ccc(OC)c(=O)cc1[C@@H](NC(C)=O)CC2"
reported_property = "MCV"
reported_measurement = "65.2 fL"

[[record]]
compound = "CN(C)CCCN1c2ccccc2CCc2ccc(Cl)cc21"
reported_property = "MCV"
reported_measurement = "66.4 fL"

[[record]]
compound = "CC1=C(/C=C/C(C)=C/C=C/C(C)=C/CO)C(C)(C)CCC1"
reported_property = "MCV"
reported_measurement = "62.2 fL"

[[record]]
compound = "CCCNC(=O)NS(=O)(=O)c1ccc(Cl)cc1 [CHLORPROPAMIDE]"
reported_property = "MCV"
reported_measurement = "64.1 fL"


# input Item under review: CC/C(=C(\c1ccccc1)c1ccc(OCCN(C)C)cc1)c1ccccc1 . Reported MCV?
# output 65.1 fL

---

# Species on record: Rattus norvegicus
# procedure summary: Open TG-GATES - Regimen: Single
# Assay type: toxicity, organism-based, Sprague-Dawley
# Parameters: regimen Single, gender Male, age 6 weeks
# measurement conditions: in vivo, po, 0 mg/kg, 24 h, tissue Kidney, route gavage, dose level Control
reported property: KIDNEY_L (g)
Just the number in g, nothing appended.

[[record]]
compound = "CN(C)CCCN1c2ccccc2CCc2ccc(Cl)cc21 [CLOMIPRAMINE]"
unit_of_measurement = "g"
reported_measurement = 1


# input Item under review: CC/C(=C(\c1ccccc1)c1ccc(OCCN(C)C)cc1)c1ccccc1 [TAMOXIFEN] . Reported KIDNEY_L?
# output 0.9

# input Item under review: NC(N)=Nc1nc(CSCCC(N)=NS(N)(=O)=O)cs1 [FAMOTIDINE] . Reported KIDNEY_L?
# output 1.1

# input Item under review: NNC(=O)c1ccncc1 [ISONIAZID] . Reported KIDNEY_L?
# output 1

# input Item under review: CN(C)CCCN1c2ccccc2CCc2ccccc21 [IMIPRAMINE] . Reported KIDNEY_L?
# output 0.9

---

# key: entry, value: TP
# Species: Rattus norvegicus
# procedure summary: Open TG-GATES - Regimen: Single
# Assay type: toxicity, organism-based, Sprague-Dawley
# Parameters: regimen Single, gender Male, age 6 weeks
# measurement conditions: in vivo, po, 1000 mg/kg, 6 h, tissue Plasma, route gavage, dose level High

The examples below pair each entry with its known result.
[[record]]
compound = "NC(N)=Nc1nc(CSCCC(N)=NS(N)(=O)=O)cs1 [FAMOTIDINE]"
reported_property = "TP"
reported_measurement = "5.5 g/dL"

[[record]]
compound = "CCOC(=O)CCC(=O)O[C@H]1[C@H](O[C@@H]2[C@@H](C)[C@H](O[C@H]3C[C@@](C)(OC)[C@@H](O)[C@H](C)O3)[C@@H](C)C(=O)O[C@H](CC)[C@@](C)(O)[C@H](O)[C@@H](C)C(=O)[C@H](C)C[C@@]2(C)O)O[C@H](C)C[C@@H]1N(C)C [ERYTHROMYCIN ETHYLSUCCINATE]"
reported_property = "TP"
reported_measurement = "5.4 g/dL"

[[record]]
compound = "COC1=CC(=O)C[C@@H](C)[C@]12Oc1c(Cl)c(OC)cc(OC)c1C2=O [GRISEOFULVIN]"
reported_property = "TP"
reported_measurement = "5.3 g/dL"

[[record]]
compound = "CC(C)OC(=O)C(C)(C)Oc1ccc(C(=O)c2ccc(Cl)cc2)cc1 [FENOFIBRATE]"
reported_property = "TP"
reported_measurement = "5.2 g/dL"


# input Item under review: COc1ccc2[nH]c([S+]([O-])Cc3ncc(C)c(OC)c3C)nc2c1 (stereo not given) [OMEPRAZOLE] . Reported TP?
# output 5.5 g/dL

---

# Organism: Rattus norvegicus
# procedure summary: Open TG-GATES - Regimen: Daily Repeat
# Type: toxicity, organism-based, Sprague-Dawley
# Parameters: regimen Daily Repeat, gender Male, age 6 weeks
# measurement conditions: in vivo, po, 300 mg/kg, 72 h, tissue Plasma, route gavage, dose level Middle, time 3 day
reported property: K (meq/L)
Just the number in meq/L, nothing appended.

The examples below pair each entry with its known result.
[[record]]
molecule = "CCOc1ccc(NC(=O)CC(C)O)cc1 (centres undefined) [BUCETIN]"
reported_measurement = 4.2

[[record]]
molecule = "COC1=CC(=O)C[C@@H](C)[C@]12Oc1c(Cl)c(OC)cc(OC)c1C2=O [GRISEOFULVIN]"
reported_measurement = 3.8

[[record]]
molecule = "COc1ccc2[nH]c([S+]([O-])Cc3ncc(C)c(OC)c3C)nc2c1 (centres undefined) [OMEPRAZOLE]"
reported_measurement = 3.9


Next:
# input Item under review: CCOC(=O)CCC(=O)O[C@H]1[C@H](O[C@@H]2[C@@H](C)[C@H](O[C@H]3C[C@@](C)(OC)[C@@H](O)[C@H](C)O3)[C@@H](C)C(=O)O[C@H](CC)[C@@](C)(O)[C@H](O)[C@@H](C)C(=O)[C@H](C)C[C@@]2(C)O)O[C@H](C)C[C@@H]1N(C)C [ERYTHROMYCIN ETHYLSUCCINATE] . Reported K?
# output 4.2

---

# Organism: Rattus norvegicus
# procedure summary: Open TG-GATES - Regimen: Daily Repeat
# Format: toxicity, organism-based, Sprague-Dawley
# Set-up: regimen Daily Repeat, gender Male, age 6 weeks
# measurement conditions: in vivo, po, 1000 mg/kg, […], tissue Blood, route gavage, dose level High, time 14 day
reported property: RBC (x10_4/ul)
Just the number in x10_4/ul, nothing appended.

[[record]]
compound = "COC1=CC(=O)C[C@@H](C)[C@]12Oc1c(Cl)c(OC)cc(OC)c1C2=O [GRISEOFULVIN]"
unit_of_measurement = "x10_4/ul"
reported_measurement = 678.4

[[record]]
compound = "COc1ccc2[nH]c([S+]([O-])Cc3ncc(C)c(OC)c3C)nc2c1 (stereo unspecified) [OMEPRAZOLE]"
unit_of_measurement = "x10_4/ul"
reported_measurement = 628.4

[[record]]
compound = "NC(N)=Nc1nc(CSCCC(N)=NS(N)(=O)=O)cs1 [FAMOTIDINE]"
unit_of_measurement = "x10_4/ul"
reported_measurement = 656.2


# input Item under review: CC(C)OC(=O)C(C)(C)Oc1ccc(C(=O)c2ccc(Cl)cc2)cc1 [FENOFIBRATE] . Reported RBC?
# output 679.4

# input Item under review: CCOc1ccc(NC(=O)CC(C)O)cc1 (stereo unspecified) [BUCETIN] . Reported RBC?
# output 567.8

# input Item under review: CCOC(=O)CCC(=O)O[C@H]1[C@H](O[C@@H]2[C@@H](C)[C@H](O[C@H]3C[C@@](C)(OC)[C@@H](O)[C@H](C)O3)[C@@H](C)C(=O)O[C@H](CC)[C@@](C)(O)[C@H](O)[C@@H](C)C(=O)[C@H](C)C[C@@]2(C)O)O[C@H](C)C[C@@H]1N(C)C [ERYTHROMYCIN ETHYLSUCCINATE] . Reported RBC?
# output 690

---

# key: entry, value: Mono
# Species on record: Rattus norvegicus
# procedure summary: Open TG-GATES - Regimen: Daily Repeat
# Assay type: toxicity, organism-based, Sprague-Dawley
# Parameters: regimen Daily Repeat, gender Male, age 6 weeks
# measurement conditions: in vivo, po, 300 mg/kg, […], tissue Blood, route gavage, dose level Middle, time 7 day
Just the number in %, nothing appended.

# input Item under review: CCOC(=O)CCC(=O)O[C@H]1[C@H](O[C@@H]2[C@@H](C)[C@H](O[C@H]3C[C@@](C)(OC)[C@@H](O)[C@H](C)O3)[C@@H](C)C(=O)O[C@H](CC)[C@@](C)(O)[C@H](O)[C@@H](C)C(=O)[C@H](C)C[C@@]2(C)O)O[C@H](C)C[C@@H]1N(C)C [ERYTHROMYCIN ETHYLSUCCINATE] . Reported Mono?
# output 2.2

# input Item under review: COC1=CC(=O)C[C@@H](C)[C@]12Oc1c(Cl)c(OC)cc(OC)c1C2=O [GRISEOFULVIN] . Reported Mono?
# output 3

# input Item under review: COc1ccc2[nH]c([S+]([O-])Cc3ncc(C)c(OC)c3C)nc2c1 (stereo not given) [OMEPRAZOLE] . Reported Mono?
# output 3

# input Item under review: NC(N)=Nc1nc(CSCCC(N)=NS(N)(=O)=O)cs1 [FAMOTIDINE] . Reported Mono?
# output 2.2

# input Item under review: CCOc1ccc(NC(=O)CC(C)O)cc1 (stereo not given) [BUCETIN] . Reported Mono?
# output 2.8
